// log10 IC50 lookup, one value per entry
tgt: full-length human RORγt (Homo sapiens (Human), UniProt P51449)
Sequence (P51449 other isoform, or with tags, fused parts or gaps): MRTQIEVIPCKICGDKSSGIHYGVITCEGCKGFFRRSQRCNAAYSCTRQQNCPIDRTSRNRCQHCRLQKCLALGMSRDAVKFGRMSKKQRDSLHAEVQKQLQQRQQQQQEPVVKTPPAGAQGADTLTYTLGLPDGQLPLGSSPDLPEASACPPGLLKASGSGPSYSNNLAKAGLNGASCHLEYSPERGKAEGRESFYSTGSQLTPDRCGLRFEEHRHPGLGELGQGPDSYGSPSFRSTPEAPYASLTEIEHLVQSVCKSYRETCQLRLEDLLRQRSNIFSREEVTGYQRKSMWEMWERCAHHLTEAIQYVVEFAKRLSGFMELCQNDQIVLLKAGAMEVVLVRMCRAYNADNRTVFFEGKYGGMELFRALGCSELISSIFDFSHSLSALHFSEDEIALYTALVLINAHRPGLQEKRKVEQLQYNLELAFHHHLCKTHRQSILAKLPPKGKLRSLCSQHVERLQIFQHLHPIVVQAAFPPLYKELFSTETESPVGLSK
procedure_summary: RORγt (full-length human) reporter assay, Conditions B or C
Type: cell-based
conditions: Conditions B or C; read-out: RORγt (FL) Reporter Assay B or C, IC50
Answers are given as log10 of IC50 in nM.

Example results:
C[C@H](CO)NC(=O)c1nc(C(=O)N2CCC[C@@H]2C)c(-c2cnc(NC(C)(C)C)cc2C(F)F)s1 : 1.40
C[C@H]1CCCCN1C(=O)c1nc(C(=O)NC2CCS(=O)(=O)CC2)sc1-c1cnc(NC2CCCCC2)cc1C1CC1 : 0.85
C[C@H](Nc1cc(C(F)(F)F)c(-c2sc(C(=O)NCC(C)(C)O)nc2C(=O)N2CCC[C@@H]2C)cn1)C(F)(F)F : 1.69
C[C@H](Nc1cc(C(F)F)c(-c2sc(C(=O)N[C@H]3C[C@H](O)C3)nc2C(=O)N2C3CCC2CC3)cn1)C(F)(F)F : 1.89
C[C@H]1CCCN1C(=O)c1nc(C(=O)NCC2(O)CC2)sc1-c1cnc(NC2CCCC2)cc1C(F)F : 1.89

Prompt line: Look at this compound and give its reported log10 IC50. C[C@H](Nc1cc(C(F)F)c(-c2sc(C(=O)NCC(C)(C)O)nc2C(=O)N2CCCC[C@@H]2C)cn1)C(F)(F)F
Response line: 1.88

Prompt line: Look at this compound and give its reported log10 IC50. CC[C@H](Nc1cc(C(F)(F)F)c(-c2sc(C(=O)NCC(C)(C)O)nc2C(=O)N2CCCC[C@@H]2C)cn1)C(F)(F)F
Response line: 1.11

Prompt line: Look at this compound and give its reported log10 IC50. CCC(C)(C)Nc1cc(C(F)F)c(-c2sc(C(=O)NCC(C)(C)O)nc2C(=O)N2CCC[C@@H]2C)cn1
Response line: 1.57

Prompt line: Look at this compound and give its reported log10 IC50. [2H]C([2H])(NC(=O)c1nc(C(=O)N2CCC[C@@H]2C)c(-c2cnc(NC(C)(C)C)cc2C(F)(F)F)s1)C(C)(C)O
Response line: 0.93

Prompt line: Look at this compound and give its reported log10 IC50. C[C@H]1CCCN1C(=O)c1nc(C(=O)NCC2(O)COC2)sc1-c1cnc(NC2CCCC2)cc1C(F)F
Response line: 1.87

Prompt line: Look at this compound and give its reported log10 IC50. C[C@H]1CC(F)(F)CN1C(=O)c1nc(C(=O)NCC(C)(C)O)sc1-c1cnc(NC(C)(C)C2CC2)cc1C(F)(F)F
Response line: 1.04

Prompt line: Look at this compound and give its reported log10 IC50. C[C@H]1CCCN1C(=O)c1nc(C(=O)NCC(C)(C)O)sc1-c1cnc(NC(C2CC2)C2CC2)cc1C(F)(F)F
Response line: 1.08

Prompt line: Look at this compound and give its reported log10 IC50. C[C@H](Nc1cc(C(F)F)c(-c2sc(C(=O)NC3CCS(=O)(=O)CC3)nc2C(=O)N2CCC[C@@H]2C)cn1)C(F)(F)F
Response line: 2.15

Prompt line: Look at this compound and give its reported log10 IC50. C[C@H]1CCN1C(=O)c1nc(C(=O)NCC(C)(C)O)sc1-c1cnc(NC2CCCCC2)cc1C(F)(F)F
Response line: 2.34

----------
// inhibition at 1 µM lookup, one value per entry
tgt: full-length human RORγt (Homo sapiens (Human), UniProt P51449)
procedure_summary: RORγt (full-length human) reporter assay, Conditions B or C
Format: cell-based
conditions: at 1 μM compound concentration; read-out: RORγt (FL) Reporter Assay B or C, % inhibition
Respond with the figure and its unit, in that order.

CC(C)(C)Nc1cc(C(F)F)c(-c2sc(C(=O)N[C@@H]3CC[C@@H](O)C3)nc2C(=O)N2C3CCC2CC3)cn1 [Example 430] : 130%
C[C@H]1CCCN1C(=O)c1nc(C(=O)N[C@H]2COC[C@@H]2O)sc1-c1cnc(NC(C)(C)C)cc1C(F)F [Example 401] : 102%

Attention now turns to another entry.
Prompt line: Look at this compound and give its reported inhibition at 1 µM. C[C@H](Nc1cc(C(F)F)c(-c2sc(C(=O)N[C@@H]3CC[C@@H](O)C3)nc2C(=O)N2C3CCC2CC3)cn1)C(F)(F)F [Example 438]
Response line: 99%

----------
// pIC50 lookup, one value per entry
tgt: full-length human RORγt (Homo sapiens (Human), UniProt P51449)
procedure_summary: RORγt (full-length human) reporter assay, Conditions A
Format: cell-based
conditions: Conditions A; read-out: RORγt (FL) Reporter Assay A, IC50
Worth noting: pIC50 values are minus log10 of concentrations stated in mol/L.

Example results:
CC(C)(O)CNC(=O)c1nc(C(=O)N2CCC(F)CC2)c(-c2cnc(NC3CCCCC3)c(C(F)(F)F)c2)s1 : 7.10
Cc1cc(NC2CCCCC2)ncc1-c1sc(C(=O)NCC(C)(C)O)nc1C(=O)N1CCC(F)CC1 : 6.40

Prompt line: Look at this molecule and give its reported pIC50. CC(C)(O)CNC(=O)c1nc(C(=O)N2CCC(F)CC2)c(-c2cnc(NC3CCC(F)(F)CC3)cc2C(F)(F)F)s1
Response line: 6.21

Prompt line: Look at this molecule and give its reported pIC50. CC(C)(O)CNC(=O)c1nc(C(=O)N2CCC(F)CC2)c(-c2cnc(NC3CCCCC3)c(C(F)F)c2)s1
Response line: 6.80

----------
tgt: full-length human RORγt (Homo sapiens (Human))
procedure_summary: RORγt (full-length human) reporter assay, Conditions A
Format: cell-based
conditions: Conditions A; read-out: RORγt (FL) Reporter Assay A, IC50
// log10 of IC50 lookup, one value per entry
Answers are given as log10 of IC50 in nM.

Example results:
CC(C)(O)CCNC(=O)c1nc(C(=O)N2CCC(F)(F)CC2)c(-c2cnc(NC3CCCCC3)cc2C(F)(F)F)s1 [Example 15] : 1.59
C[C@H]1CCCCN1C(=O)c1nc(C(=O)NCC(C)(C)O)sc1-c1cnc(NC2CCCCC2)cc1C(F)(F)F [Example 5] : 0.95
C[C@H]1CCCN1C(=O)c1nc(C(=O)NCC(C)(C)O)sc1-c1cnc(NC2CCCCC2)cc1C(F)(F)F [Example 19] : 1.51
CC(C)(O)CNC(=O)c1nc(C(=O)N2CCC(F)CC2)c(-c2cnc(NCCC(F)(F)F)cc2C(F)(F)F)s1 [Example 8] : 2.53
Cc1c(-c2sc(C(=O)NCC(C)(C)O)nc2C(=O)N2CCC(F)CC2)cnc(NC2CCCCC2)c1F [Example 66] : 2.18
CC(C)(O)CNC(=O)c1nc(C(=O)N2CCC(F)CC2)c(-c2cnc(NCCC(F)(F)F)c(C(F)(F)F)c2)s1 [Example 7] : 2.79

Prompt line: Look at this molecule and give its reported log10 of IC50. C[C@H]1CCCCN1C(=O)c1nc(C(=O)NCC(C)(C)O)sc1-c1cnc(NC2CCCCC2)c(C(F)(F)F)c1 [Example 4]
Response line: 0.95

----------
tgt: full-length human RORγt (Homo sapiens (Human), UniProt P51449)
procedure_summary: RORγt (full-length human) reporter assay, Conditions B or C
Assay type: cell-based
conditions: at 3 μM compound concentration; read-out: RORγt (FL) Reporter Assay B or C, % inhibition
From the text: RORγt (Full-Length Human) Reporter Assay: Cells used in this assay were transiently co-transfected with three different plasmids, one expressing the GAL4-DNA binding domain (DBD)-RORγt fusion protein under control of a CMV promoter (NH2-Gal4-DBD:RORC-COOH in pCMV-BD, Stratagene #211342), and two reporter plasmids—the firefly luciferase reporter under control of a GAL4 promoter (pFR-Luc 2×GAL4) and Renilla luciferase reporter under control of CMV promoter (pRL-CMV, Promega # E2261). […]
measurement_type: inhibition at 3 µM
Respond with the figure and its unit, in that order.

Example results:
C[C@H]1CCCN1C(=O)c1nc(C(=O)NC[C@H](O)C(F)(F)F)sc1-c1cnc(NC(C)(C)C)cc1C(F)(F)F (relative stereo) : 95%
CC[C@H](Nc1cc(C(F)F)c(-c2sc(C(=O)N[C@@H]3CC[C@@H](O)C3)nc2C(=O)N2CC(F)(F)C[C@@H]2C)cn1)C(F)(F)F : 98%

Prompt line: Look at this molecule and give its reported inhibition at 3 µM. CC[C@@H](Nc1cc(C(F)(F)F)c(-c2sc(C(=O)NCC(C)(C)O)nc2C(=O)N2CCC[C@@H]2C)cn1)C(F)(F)F
Response line: 109%

Prompt line: Look at this molecule and give its reported inhibition at 3 µM. C[C@H]1CCCN1C(=O)c1nc(C(=O)N[C@H]2CCC[C@@H]2O)sc1-c1cnc(NC(C)(C)C)cc1C(F)F
Response line: 96%

Prompt line: Look at this molecule and give its reported inhibition at 3 µM. C[C@H]1CCCN1C(=O)c1nc(C(=O)N[C@H]2CC[C@H](O)C2)sc1-c1cnc(NC(C)(C)C)cc1C(F)F
Response line: 110%

Prompt line: Look at this molecule and give its reported inhibition at 3 µM. C[C@H]1CCCN1C(=O)c1nc(C(=O)N2CC[C@@](C)(O)C2)sc1-c1cnc(NC(C)(C)C)cc1C(F)(F)F (relative stereo)
Response line: 97%

Prompt line: Look at this molecule and give its reported inhibition at 3 µM. C[C@H](Nc1cc(C(F)F)c(-c2sc(C(=O)N[C@H]3CC[C@@H]3O)nc2C(=O)N2CCC[C@@H]2C)cn1)C(F)(F)F (relative stereo)
Response line: 103%
